test: chemical genetic growth profiling, strain panel (AID 1159580);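 note: tested at 20 µM; growth read once vehicle control cultures reached saturation at 30 °C; 1 = growth at the plate median or of vehicle wells; lower values mean less growth of the strain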; conditions: S. cerevisiae deletion strains, growth OD, locus YBR009C, strain hhf1, stronger effect = lower value
The campaign covered roughly 5,500 compounds. About 2,000 (36%) were called active. Another 18% or so got no clear call; they are omitted. The list shows a part of the results.
Please respond with reported normalized growth for every item in the list.
Give bare numbers.

>>> print(df.to_string())
                                molecule      assay_readout  data_value
0     OC(Cn1cncn1)(Cn1cncn1)c1ccc(F)cc1F  normalized growth       0.998
1  COc1ccc(-c2coc3cc(OC)cc(OC)c3c2=O)cc1  normalized growth       0.988
2     O=C(O)CN1C(=O)c2cccc3cccc(c23)C1=O  normalized growth       0.985

Batch request: normalized growth per item, same order as input.
1. COC(=O)C[C@H]1C(C)(C)C(=O)[C@@H]2CC3=C(CC[C@]4(C)C3=CC(=O)O[C@H]4c3ccoc3)[C@@]1(C)C2=O
2. COC(=O)C(O)c1ccccc1 (configuration not stated)
3. OCCOCCN1CCN(C2=Nc3ccccc3Sc3ccccc32)CC1
4. CCNC(=O)CC[C@H](N)C(=O)O
5. Cc1coc2c1C(=O)C(=O)c1c-2ccc2c1CCCC2(C)C
6. O=C1C=C2C=C[C@@H]3C[C@@]2(O1)[C@H]1CCCCN31
7. CC(C(=O)O)c1ccc(C(=O)c2cccs2)cc1 (configuration not stated)
8. CCC(C)(C)C(=O)O[C@H]1C[C@@H](C)C=C2C=C[C@H](C)[C@H](CC[C@@H]3C[C@@H](O)CC(=O)O3)[C@H]21

Reply |
1: 0.983; 2: 1.01; 3: 1.02; 4: 1.02; 5: 0.882; 6: 0.938; 7: 1.01; 8: 0.912

Field: normalized growth. Fill in for each record below.
1. COc1cc2occ(-c3ccccc3)c(=O)c2c(OC)c1C
2. Cc1c(S(=O)(=O)O)oc2c1C(=O)C(=O)c1c-2ccc2c1CCCC2(C)C
3. CC1(C)O[C@H]2[C@H](O)C[C@](O)(C(N)=O)C[C@H]2O1
4. C=C1CCC2C(CC2(C)C)C(=C)CC/C1=N\O (configuration not stated)
5. COC(=O)C(C)c1ccc(C(=O)c2cccs2)cc1 (configuration not stated)
6. C[N+]1(C)C2CC(OC(=O)[C@@H](CO)c3ccccc3)CC1C1OC12 (some centres not stated)

Reply |
0.978
0.885
1.02
0.99
1
0.955

====

test: chemical genetic growth profiling, strain panel (AID 1159580);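 note: tested at 20 µM; growth read once vehicle control cultures reached saturation at 30 °C; 1 = growth at the plate median or of vehicle wells; lower values mean less growth of the strain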; details: S. cerevisiae deletion strains, growth OD, locus YOR080W, strain dia2, stronger effect = lower value
Screen size: about 5,500 compounds; about 2,000 (36%) were called active. Another 18% or so got no clear call; they are omitted. Some of the results follow.
ASSAY_READOUT: normalized growth
One number for each entry.

Some entries whose results are on file:
In [3]: df
Out[3]:
                                   compound  data_value
0  CC[C@H](C)C(=O)O[C@H]1CCC=C2C=C[C@H](C)C(CCC3C[C@@H](O)CC(=O)O3)[C@H]21 (stereo partly specified)           1
1  O=C(O)CN(CC(=O)O)Cc1cc2c(-c3ccccc3C(=O)O)c3cc(CN(CC(=O)O)CC(=O)O)c(=O)cc-3oc2cc1O       0.947
2           Cc1ccc(C)c(OCCCC(C)(C)C(=O)O)c1        1.01

Provide normalized growth for all items below, preserving their order.
1. OCCOCCN1CCN(C2=Nc3ccccc3Sc3ccccc32)CC1
2. O=c1[nH]oc2c1CCNC2

Reply |
[1, 0.998]

// for each compound below, give its normalized growth
1. NC(N)=NS(=O)(=O)c1ccc(N)cc1
2. O=C1OC(c2ccc(O)cc2)(c2ccc(O)cc2)c2ccccc21
3. COC(=O)C[C@H]1C(C)(C)C(=O)[C@@H]2CC3=C(CC[C@]4(C)C3=CC(=O)O[C@H]4c3ccoc3)[C@@]1(C)C2=O
4. CCC(C)(C)C(=O)O[C@H]1C[C@@H](C)C=C2C=C[C@H](C)[C@H](CC[C@@H]3C[C@@H](O)CC(=O)O3)[C@H]21
5. CC(=O)OC1CCC2(C)C(=CC=C3C2CCC2(C)C3CCC2C(C)/C=C/C(C)C(C)C)C1(C)C (stereo unspecified)

Reply |
1. 0.985
2. 0.981
3. 0.966
4. 0.971
5. 1.02

Dear reader, for each entry below, please note its normalized growth.
1. CC[C@H](C)C(=O)O[C@H]1C[C@@H](C)C=C2C=C[C@H](C)[C@H](CC[C@@H]3C[C@@H](O)CC(=O)O3)[C@H]21
2. CC(=O)Oc1c(C)cccc1C(=O)O

Reply |
[0.998, 0.999]

List normalized growth for every entry below, keeping the order given.
1. Nc1ccc(N=Nc2ccccc2)c(N)n1
2. CCC(C)C(=O)O[C@H]1C[C@H](O)C=C2C=C[C@H](C)[C@H](CC[C@@H](O)C[C@@H](O)CC(=O)O)C21 (stereo partly specified)

Reply |
[0.967, 0.999]

Parameters: items (list). Returns: normalized growth for each item.
1. CCNC(=O)CC[C@H](N)C(=O)O
2. CCCC(=O)O[C@]1(C(=O)CO)CCC2[C@@H]3CCC4=CC(=O)CC[C@]4(C)C3[C@@H](O)C[C@@]21C (stereo partly specified)
3. O=C1OC2(c3ccc(O)cc3Oc3cc(O)ccc32)c2ccccc21

Reply |
1. 0.99
2. 0.997
3. 1.02

The following compounds each have a reported value; give each one's normalized growth.
1. CCOC(=O)c1ccc(O)cc1
2. CC1C[C@H]2CC(=O)[C@H]3CCCN4CCC[C@H]2[C@]34C1 (stereo partly specified)
3. Cc1ccc(Cl)c(Nc2ccccc2C(=O)O)c1Cl
4. COc1c(OC)c2occc2c2oc(=O)ccc12

Reply |
1: 1.02; 2: 1; 3: 0.914; 4: 0.98

====

For each entry below, report its normalized growth value.
test: chemical genetic growth profiling, strain panel (AID 1159580);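 note: tested at 20 µM; growth read once vehicle control cultures reached saturation at 30 °C; 1 = growth at the plate median or of vehicle wells; lower values mean less growth of the strain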; settings: S. cerevisiae deletion strains, growth OD, locus YHR027C, strain rpn1, stronger effect = lower value
Among all 5,500 compounds or so, about 2,000 (36%) were called active. About 18% were inconclusive and are not listed. The list shows a part of the results.
Answers are plain numbers.

Some entries whose results are on file:
In [3]: df
Out[3]:
                                   compound      assay_readout  data_value
0  Nc1ccn(C2O[C@H](CO)[C@@H](O)[C@@H]2O)c(=O)n1 (stereo partly specified)  normalized growth       0.996
1      C=CC(N)CCC(=O)O (stereo unspecified)  normalized growth       0.972
2             COc1c(OC)c2occc2c2oc(=O)ccc12  normalized growth       0.984

I'm hoping you can list normalized growth for every compound here, please.
1. COc1ccc2c(c1OC)C(=O)OC2[C@H]1c2c(cc3c(c2OC)OCO3)CCN1C (stereo partly specified)
2. CC[C@H](C)C(=O)O[C@H]1CCC=C2C=C[C@H](C)C(CCC3C[C@@H](O)CC(=O)O3)[C@H]21 (stereo partly specified)
3. O=c1cc[nH]c(=S)[nH]1

Reply |
1: 1.01; 2: 1.02; 3: 1

====

For each entry below, report its normalized growth value.
test: chemical genetic growth profiling, strain panel (AID 1159580);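 note: tested at 20 µM; growth read once vehicle control cultures reached saturation at 30 °C; 1 = growth at the plate median or of vehicle wells; lower values mean less growth of the strain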; conditions: S. cerevisiae deletion strains, growth OD, locus YIL066C, strain RNR3, stronger effect = lower value
The campaign covered roughly 5,500 compounds. About 2,000 (36%) were called active. Not shown: some 18% with an inconclusive outcome. The list shows a part of the results.
Numbers only.

// below: answered compounds
COMPOUND	normalized growth
Cc1cccc(C)c1NC1=NCCCS1	1
COC(=O)C(C)c1ccc(C(=O)c2cccs2)cc1 (stereo not drawn)	0.977
COc1ccc2c(c1)O[C@H]1c3ccc(OC)cc3OC[C@@H]21	0.977

Parameters: items (list). Returns: normalized growth for each item.
1. CC1(C)O[C@@H]2CC3C4CCC5=CC(=O)CCC5(C)C4(F)C(O)CC3(C)[C@]2(C(=O)CCl)O1 (stereo partly drawn)
2. COc1cc([C@@H]2c3cc4c(c(O)c3C[C@H]3COC(=O)[C@@H]32)OCO4)cc(OC)c1OC
3. Cc1ccc(Cl)c(Nc2ccccc2C(=O)O)c1Cl
4. COc1ccc2c(c1O)OCC1c3cc4c(cc3OC21)OCO4 (stereo not drawn)
5. CC(C)NC[C@H](O)COc1cccc2ccccc12
6. CCNC(=O)CC[C@H](N)C(=O)O
7. CCN(CC)C(=O)c1cccc(C)c1

Reply |
1. 1
2. 0.983
3. 0.881
4. 0.974
5. 1.01
6. 1.04
7. 0.998

Batch: normalized growth for all items listed.
1. CC[C@H](C)C(=O)O[C@H]1C[C@@H](C)C=C2C=C[C@H](C)[C@H](CC[C@@H]3C[C@@H](O)CC(=O)O3)[C@H]21
2. CCCCOC(=O)c1ccc(N)cc1
3. O=C(C1CCCCC1)N1CC(=O)N2CCc3ccccc3C2C1 (stereo not drawn)
4. Cc1cc(-c2ccccc2)nnc1NCCN1CCOCC1

Reply |
1: 0.965; 2: 0.925; 3: 1.01; 4: 1.01

Field: normalized growth. Fill in for each record below.
1. O=C1NC(=O)C(=O)C(=O)N1
2. C=CCSCC1Nc2cc(Cl)c(S(N)(=O)=O)cc2S(=O)(=O)N1 (stereo not drawn)
3. C[C@@H]1C(=O)OC2[C@H](O)C34[C@@H]5OC(=O)[C@@]3(O[C@@H]3OC(=O)[C@H](O)[C@@]34[C@H](C(C)(C)C)[C@H]5O)[C@]21O (stereo partly drawn)
4. O=c1[nH]oc2c1CCNC2
5. Cc1ccc(C)c(OCCCC(C)(C)C(=O)O)c1

Reply |
1. 1.03
2. 1
3. 1
4. 1.01
5. 0.936

# return normalized growth for each item in the list
1. CC[N+](CC)(CC)CCOc1cccc(OCC[N+](CC)(CC)CC)c1OCC[N+](CC)(CC)CC
2. CCCCN(CCCC)CCCOC(=O)c1ccc(N)cc1
3. CCCCN1CCCCC1C(=O)Nc1c(C)cccc1C (stereo not drawn)
4. CC1=CC2C(CC1=O)C(C)=CCC2C(C)C (stereo not drawn)
5. CC(C)[C@@H]1CC[C@@H](C)C[C@H]1O
6. Oc1ccc(Cl)cc1Cc1cc(Cl)ccc1O
7. C=C1C(C)C2C(Cc3ccccc3)NC(=O)C23OC(=O)/C=C/C(O)CCCC(C)C/C=C/C3C1O (stereo not drawn)
8. CCCCOC(=O)c1ccccc1C(=O)OCCCC

Reply |
1.01
0.991
1.01
0.9
0.994
0.0647
1.02
0.972
